Taken from patent US10400230B2.

Experiment: Determination of binding constants of inhibitor (NNIC) in Model B detergent, Suc-AAPF-pNA read-out
Assay type: biochemical
Settings: Ki of variant with the mutation relative to variant without the mutation, <1.0 beneficial
Would you kindly list Inhibitor-binding relative Kimutation, inhibitor binding in Model B for each of these molecules?
Give bare numbers.

>>> reportedvalue("S173P, S175P, F180Y, R224S: TY145 protease (SEQ ID NO 3) variant with these substitutions (protein, listed as Bacillus sp.) AVPSTQTPWGIKSIYNDQSITKTTGGSGIKVAVLDTGVYTSHLDLAGSAEQCKDFTQSNPLVDGSCTDRQGHGTHVAGTVLAHGGSNGQGVYGVAPQAKLWAYKVLGDNGSGYSDDIAAAIRHVADEASRTGSKVVINMSLGSSAKDSLIASAVDYAYGKGVLIVAAAGNSGPGPNTIGYPGGLVNAVAVAALENVQQNGTYRVADFSSRGNPATAGDYIIQESDIEVSAPGASVESTWYTGGYNTISGTSMATPHVAGLAAKIWSANTSLSHSQLRTELQNRAKVYDIKGGIGAGTGDDYASGFGYPRVK")
0.50
>>> reportedvalue("S173P, S175P, F180Y, L184W: TY145 protease (SEQ ID NO 3) variant with these substitutions (protein, listed as Bacillus sp.) AVPSTQTPWGIKSIYNDQSITKTTGGSGIKVAVLDTGVYTSHLDLAGSAEQCKDFTQSNPLVDGSCTDRQGHGTHVAGTVLAHGGSNGQGVYGVAPQAKLWAYKVLGDNGSGYSDDIAAAIRHVADEASRTGSKVVINMSLGSSAKDSLIASAVDYAYGKGVLIVAAAGNSGPGPNTIGYPGGWVNAVAVAALENVQQNGTYRVADFSSRGNPATAGDYIIQERDIEVSAPGASVESTWYTGGYNTISGTSMATPHVAGLAAKIWSANTSLSHSQLRTELQNRAKVYDIKGGIGAGTGDDYASGFGYPRVK")
0.50
>>> reportedvalue("I150A, S173P, S175P, F180Y: TY145 protease (SEQ ID NO 3) variant with these substitutions (protein, listed as Bacillus sp.) AVPSTQTPWGIKSIYNDQSITKTTGGSGIKVAVLDTGVYTSHLDLAGSAEQCKDFTQSNPLVDGSCTDRQGHGTHVAGTVLAHGGSNGQGVYGVAPQAKLWAYKVLGDNGSGYSDDIAAAIRHVADEASRTGSKVVINMSLGSSAKDSLAASAVDYAYGKGVLIVAAAGNSGPGPNTIGYPGGLVNAVAVAALENVQQNGTYRVADFSSRGNPATAGDYIIQERDIEVSAPGASVESTWYTGGYNTISGTSMATPHVAGLAAKIWSANTSLSHSQLRTELQNRAKVYDIKGGIGAGTGDDYASGFGYPRVK")
0.50

Next up:
Please look at this molecule and report its Inhibitor-binding relative Kimutation, inhibitor binding in Model B: S173P, S175P, F180Y, R224D: TY145 protease (SEQ ID NO 3) variant with these substitutions (protein, listed as Bacillus sp.) AVPSTQTPWGIKSIYNDQSITKTTGGSGIKVAVLDTGVYTSHLDLAGSAEQCKDFTQSNPLVDGSCTDRQGHGTHVAGTVLAHGGSNGQGVYGVAPQAKLWAYKVLGDNGSGYSDDIAAAIRHVADEASRTGSKVVINMSLGSSAKDSLIASAVDYAYGKGVLIVAAAGNSGPGPNTIGYPGGLVNAVAVAALENVQQNGTYRVADFSSRGNPATAGDYIIQEDDIEVSAPGASVESTWYTGGYNTISGTSMATPHVAGLAAKIWSANTSLSHSQLRTELQNRAKVYDIKGGIGAGTGDDYASGFGYPRVK
0.36
